System: 454973-116-R2-J3-PDC complex spheroid viability;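 also: spheroids exposed to drugs for seven days before measurement; percent viability relative to DMSO vehicle control wells taken as 100%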
Experiment description: Anticancer human tumor 454973-116-R2-J3-PDC patient-derived pancreatic carcinoma cell line growth inhibition [POLQ]
Test context: second compound 0.1 µM; first compound 0.1 µM; active compounds read low
Measurement label: viability, T/C

Entry under test: CCCS(=O)(=O)Nc1ccc(F)c(C(=O)c2c[nH]c3ncc(-c4ccc(Cl)cc4)cc23)c1F + COC1C(OC(N)=O)C(O)C(Oc2ccc3c(O)c(NC(=O)c4ccc(O)c(CC=C(C)C)c4)c(=O)oc3c2C)OC1(C)C . Its viability, T/C was 118%

Continuing:
Note to self: viability, T/C recorded for COc1cccc2c1C(=O)c1c(O)c3c(c(O)c1C2=O)CC(O)(C(=O)CO)CC3OC1CC(N)C(O)C(C)O1 (configuration not stated) + COC1C(OC(N)=O)C(O)C(Oc2ccc3c(O)c(NC(=O)c4ccc(O)c(CC=C(C)C)c4)c(=O)oc3c2C)OC1(C)C was 27.6%
